Ref: patent US20240109865A1

Below: a set of entries, each annotated with reported IC50.
Test system: FGFR1-BCR Ba/F3 cells (Homo sapiens)
Sequence (P11362 22-822 limits assumed, change not shown): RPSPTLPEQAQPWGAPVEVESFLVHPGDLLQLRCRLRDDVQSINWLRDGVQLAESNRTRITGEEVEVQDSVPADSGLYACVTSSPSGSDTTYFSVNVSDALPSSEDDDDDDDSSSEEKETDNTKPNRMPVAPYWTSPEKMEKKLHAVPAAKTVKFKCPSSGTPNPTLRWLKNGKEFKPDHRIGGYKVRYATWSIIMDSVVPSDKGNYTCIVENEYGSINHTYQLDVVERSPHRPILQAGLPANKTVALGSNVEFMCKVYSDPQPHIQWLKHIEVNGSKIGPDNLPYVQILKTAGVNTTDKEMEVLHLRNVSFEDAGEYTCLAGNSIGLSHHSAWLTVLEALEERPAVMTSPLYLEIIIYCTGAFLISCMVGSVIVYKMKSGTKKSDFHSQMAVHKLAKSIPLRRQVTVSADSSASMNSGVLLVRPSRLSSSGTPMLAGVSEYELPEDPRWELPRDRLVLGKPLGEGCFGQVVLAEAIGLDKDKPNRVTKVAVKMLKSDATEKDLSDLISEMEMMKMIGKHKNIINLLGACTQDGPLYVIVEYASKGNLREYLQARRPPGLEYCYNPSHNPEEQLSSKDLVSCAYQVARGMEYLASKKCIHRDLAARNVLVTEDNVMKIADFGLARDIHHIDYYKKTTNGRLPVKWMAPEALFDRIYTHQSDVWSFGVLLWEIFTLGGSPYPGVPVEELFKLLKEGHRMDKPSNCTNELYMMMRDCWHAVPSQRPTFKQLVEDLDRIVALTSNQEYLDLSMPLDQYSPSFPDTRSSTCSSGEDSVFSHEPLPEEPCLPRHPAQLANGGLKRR
Assay details: Ba/F3 cell viability assay (CellTiter-Glo 2.0), FGFR1-BCR Ba/F3
Type: cell-based
Experimental context: read-out: Ba/F3 Cells FGFR1 (IC50 nM), 48 hours, Cell Titer Glo 2.0
Readout label: IC50

>  <Molecule>
C[C@@H](Oc1ccc2[nH]nc(-c3cnn(C4CCN(C5CCC5)CC4)c3)c2c1)c1c(Cl)cncc1Cl [Example 90]

>  <Test system>
FGFR1-BCR Ba/F3 cells (Homo sapiens)

>  <Readout label>
IC50

>  <Value reported>
20 to 100 nM

$$$$
>  <Molecule>
CC(Oc1ccc2[nH]nc(-c3cnn(C4CCN(C5COC5)CC4)c3)c2c1)c1c(Cl)ccnc1Cl (stereo not drawn) [Example 108]

>  <Test system>
FGFR1-BCR Ba/F3 cells (Homo sapiens)

>  <Readout label>
IC50

>  <Value reported>
100 to 300 nM

$$$$
>  <Molecule>
C[C@@H](Oc1ccc2[nH]nc(-c3ccc(N4CC5(CN(C(=O)N(C)C)C5)C4)nc3)c2c1)c1c(Cl)cncc1Cl [Example 47]

>  <Test system>
FGFR1-BCR Ba/F3 cells (Homo sapiens)

>  <Readout label>
IC50

>  <Value reported>
100 to 300 nM

$$$$
>  <Molecule>
C[C@@H](Oc1ccc2[nH]nc(-c3ccc(N4CC5(C4)CS(=O)(=O)C5)nc3)c2c1)c1c(Cl)cncc1Cl [Example 112]

>  <Test system>
FGFR1-BCR Ba/F3 cells (Homo sapiens)

>  <Readout label>
IC50

>  <Value reported>
100 to 300 nM

$$$$
>  <Molecule>
C[C@@H](Oc1ccc2[nH]nc(-c3cnc(N4CCN(S(C)(=O)=O)CC4)nc3)c2c1)c1c(Cl)cncc1Cl [Example 14]

>  <Test system>
FGFR1-BCR Ba/F3 cells (Homo sapiens)

>  <Readout label>
IC50

>  <Value reported>
> 300 nM

$$$$
>  <Molecule>
C[C@@H](Oc1ccc2[nH]nc(-c3ccc(N4CC5(CCCS(=O)(=O)C5)C4)nc3)c2c1)c1c(Cl)cncc1Cl [Example 159]

>  <Test system>
FGFR1-BCR Ba/F3 cells (Homo sapiens)

>  <Readout label>
IC50

>  <Value reported>
20 to 100 nM

$$$$
>  <Molecule>
C[C@@H](Oc1ccc2[nH]nc(-c3ccc(N4CCN(C(=O)N(C)C)C5(CC5)C4)nc3)c2c1)c1c(Cl)cncc1Cl [Example 23]

>  <Test system>
FGFR1-BCR Ba/F3 cells (Homo sapiens)

>  <Readout label>
IC50

>  <Value reported>
100 to 300 nM

$$$$
>  <Molecule>
C[C@@H](Oc1ccc2[nH]nc(-c3cnn(C4CCN(C)CC4)c3)c2c1)c1c(Cl)cncc1Cl [Example 65]

>  <Test system>
FGFR1-BCR Ba/F3 cells (Homo sapiens)

>  <Readout label>
IC50

>  <Value reported>
20 to 100 nM

$$$$
>  <Molecule>
Cc1ncc(Cl)c([C@@H](C)Oc2ccc3[nH]nc(-c4cnn(C5CCS(=O)(=O)CC5)c4)c3c2)c1Cl [Example 116]

>  <Test system>
FGFR1-BCR Ba/F3 cells (Homo sapiens)

>  <Readout label>
IC50

>  <Value reported>
100 to 300 nM

$$$$
>  <Molecule>
C[C@@H](Oc1ccc2[nH]nc(-c3ccc(N4CC5(CCN(S(C)(=O)=O)C5)C4)nc3)c2c1)c1c(Cl)cncc1Cl [Example 115]

>  <Test system>
FGFR1-BCR Ba/F3 cells (Homo sapiens)

>  <Readout label>
IC50

>  <Value reported>
20 to 100 nM

$$$$
>  <Molecule>
C[C@@H](Oc1ccc2[nH]nc(-c3cnc(N4CCC5(CCC(=O)N5C)CC4)c(F)c3)c2c1)c1c(Cl)cncc1Cl [Example 43]

>  <Test system>
FGFR1-BCR Ba/F3 cells (Homo sapiens)

>  <Readout label>
IC50

>  <Value reported>
20 to 100 nM

$$$$
>  <Molecule>
Cc1cncc(C)c1[C@@H](C)Oc1ccc2[nH]nc(-c3ccc(N4CC5(C4)CN(S(C)(=O)=O)C5)nc3)c2c1 [Example 139]

>  <Test system>
FGFR1-BCR Ba/F3 cells (Homo sapiens)

>  <Readout label>
IC50

>  <Value reported>
100 to 300 nM

$$$$
>  <Molecule>
Cc1ncc(Cl)c([C@@H](C)Oc2ccc3[nH]nc(-c4ccc(N5CC6(C5)CN(S(C)(=O)=O)C6)nc4)c3c2)c1Cl [Example 107]

>  <Test system>
FGFR1-BCR Ba/F3 cells (Homo sapiens)

>  <Readout label>
IC50

>  <Value reported>
100 to 300 nM

$$$$
>  <Molecule>
C[C@@H](Oc1ccc2[nH]nc(-c3ccc(N4CCN(C(N)=O)C5(CC5)C4)nc3)c2c1)c1c(Cl)cncc1Cl [Example 24]

>  <Test system>
FGFR1-BCR Ba/F3 cells (Homo sapiens)

>  <Readout label>
IC50

>  <Value reported>
20 to 100 nM

$$$$
>  <Molecule>
C[C@@H](Oc1ccc2[nH]nc(-c3cnc(N4CCCN(C5COC5)CC4)nc3)c2c1)c1c(Cl)cncc1Cl [Example 60]

>  <Test system>
FGFR1-BCR Ba/F3 cells (Homo sapiens)

>  <Readout label>
IC50

>  <Value reported>
100 to 300 nM

$$$$
>  <Molecule>
C[C@@H](Oc1ccc2[nH]nc(-c3ccc(N4CCNCC4=O)nc3)c2c1)c1c(Cl)cncc1Cl [Example 37]

>  <Test system>
FGFR1-BCR Ba/F3 cells (Homo sapiens)

>  <Readout label>
IC50

>  <Value reported>
100 to 300 nM

$$$$
>  <Molecule>
CCS(=O)(=O)N1CC2(CN(c3ncc(-c4n[nH]c5ccc(O[C@H](C)c6c(Cl)cncc6Cl)cc45)cn3)C2)C1 [Example 128]

>  <Test system>
FGFR1-BCR Ba/F3 cells (Homo sapiens)

>  <Readout label>
IC50

>  <Value reported>
> 300 nM

$$$$
>  <Molecule>
C[C@@H](Oc1ccc2[nH]nc(-c3ccc(N4CCN(S(=O)(=O)N5CCN(C)CC5)CC4)nc3)c2c1)c1c(Cl)cncc1Cl [Example 8]

>  <Test system>
FGFR1-BCR Ba/F3 cells (Homo sapiens)

>  <Readout label>
IC50

>  <Value reported>
100 to 300 nM

$$$$
>  <Molecule>
C[C@@H](Oc1ccc2[nH]nc(-c3cnc(N4CC5(C4)CN(S(C)(=O)=O)C5)nc3)c2c1)c1c(Cl)cncc1Cl [Example 119]

>  <Test system>
FGFR1-BCR Ba/F3 cells (Homo sapiens)

>  <Readout label>
IC50

>  <Value reported>
20 to 100 nM

$$$$
>  <Molecule>
CC(C)S(=O)(=O)N1CC2(CN(c3ncc(-c4n[nH]c5ccc(O[C@H](C)c6c(Cl)cncc6Cl)cc45)cn3)C2)C1 [Example 120]

>  <Test system>
FGFR1-BCR Ba/F3 cells (Homo sapiens)

>  <Readout label>
IC50

>  <Value reported>
100 to 300 nM

$$$$
>  <Molecule>
C[C@@H](Oc1ccc2[nH]nc(-c3cnc(N4CCC5(CC4)CNC(=O)C5)nc3)c2c1)c1c(Cl)cncc1Cl [Example 49]

>  <Test system>
FGFR1-BCR Ba/F3 cells (Homo sapiens)

>  <Readout label>
IC50

>  <Value reported>
100 to 300 nM

$$$$
>  <Molecule>
C[C@@H](Oc1ccc2[nH]nc(-c3cnc(N4CCC5(CC4)CCS(=O)(=O)C5)c(F)c3)c2c1)c1c(Cl)cncc1Cl [Example 77]

>  <Test system>
FGFR1-BCR Ba/F3 cells (Homo sapiens)

>  <Readout label>
IC50

>  <Value reported>
100 to 300 nM

$$$$
>  <Molecule>
COC(=O)N1CCC2(CC1)CN(c1ccc(-c3n[nH]c4ccc(O[C@H](C)c5c(Cl)cncc5Cl)cc34)cn1)C2 [Example 125]

>  <Test system>
FGFR1-BCR Ba/F3 cells (Homo sapiens)

>  <Readout label>
IC50

>  <Value reported>
100 to 300 nM

$$$$
>  <Molecule>
C[C@@H](Oc1ccc2[nH]nc(-c3cnc(N4CCC5(CC4)CCS(=O)(=O)C5)nc3)c2c1)c1c(Cl)cncc1Cl [Example 57]

>  <Test system>
FGFR1-BCR Ba/F3 cells (Homo sapiens)

>  <Readout label>
IC50

>  <Value reported>
100 to 300 nM

$$$$
>  <Molecule>
C[C@@H](Oc1ccc2[nH]nc(-c3cnc(N4CCC5(CCC(=O)N5)CC4)nc3)c2c1)c1c(Cl)cncc1Cl [Example 48]

>  <Test system>
FGFR1-BCR Ba/F3 cells (Homo sapiens)

>  <Readout label>
IC50

>  <Value reported>
100 to 300 nM

$$$$
>  <Molecule>
C[C@@H](Oc1ccc2[nH]nc(-c3cnc(N4CCN(C(=O)N5CCN(C)CC5)CC4)nc3)c2c1)c1c(Cl)cncc1Cl [Example 15]

>  <Test system>
FGFR1-BCR Ba/F3 cells (Homo sapiens)

>  <Readout label>
IC50

>  <Value reported>
> 300 nM

$$$$
>  <Molecule>
Cc1ncc(Cl)c([C@@H](C)Oc2ccc3[nH]nc(-c4cnn(C5CCNCC5)c4)c3c2)c1Cl [Example 92]

>  <Test system>
FGFR1-BCR Ba/F3 cells (Homo sapiens)

>  <Readout label>
IC50

>  <Value reported>
100 to 300 nM

$$$$
